The measured values listed here are drawn from the supplement of paper PMC7125110.

Entries and their self-cleavage kobs at 2500 uM GlcN6P values follow.
B1: glmS ribozyme (parent)
chain: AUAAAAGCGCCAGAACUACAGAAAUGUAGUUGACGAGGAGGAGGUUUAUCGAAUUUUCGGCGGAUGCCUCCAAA

Variants of: B1
Test: self-cleavage kobs at 2500 uM GlcN6P; higher = faster cleavage; RNA array
Settings: with glucosamine-6-phosphate
Fewer inactive variants are shown than the library holds.

In the examples that follow, each entry is paired with its recorded self-cleavage kobs at 2500 uM GlcN6P.
> print(dat)
   mutation.descriptor  assay.result
1       G35U A64G C71A   < 1e-05 s⁻¹
2       C16U G38A G66A   < 1e-05 s⁻¹

Query block: Find the recorded self-cleavage kobs at 2500 uM GlcN6P belonging to G43U C50U and report it.
Result block: < 1e-05 s⁻¹

Query block: Find the recorded self-cleavage kobs at 2500 uM GlcN6P belonging to G44A C50G and report it.
Result block: < 1e-05 s⁻¹

Query block: Find the recorded self-cleavage kobs at 2500 uM GlcN6P belonging to G41C A64C and report it.
Result block: < 1e-05 s⁻¹
